test-protocol: In vivo formation of NAFB1 and NAHFB1 in rat kidney and liver (HPLC-ESI-MS/MS)
Set-up: unit not given here
condition-notes: Kidney; treatment FB1 2 mg/kg BW ip, 5 days
measured-endpoint: N-acyl-derivative in tissue sample, analysis a

CCCCCCCCC=CCCCCCCCCCCCCCC(=O)NC(C)C(O)CC(O)CCCCC(O)CC(C)CC(OC(=O)CC(CC(=O)O)C(=O)O)C(OC(=O)CC(CC(=O)O)C(=O)O)C(C)CCCC (centres unmarked) [FB1C24:1]
5,7
CCCCCCCCCCCCCCCCCCCC(=O)N[C@@H](C)[C@@H](O)C[C@H](O)CCCC[C@@H](O)C[C@H](C)C[C@H](O)[C@H](O)[C@H](C)CCCC [HFB1C20:0]
0,0
CCCCCCCCCCCCCCCCCCCC(=O)NC(C)C(O)CC(O)CCCCC(O)CC(C)CC(OC(=O)CC(CC(=O)O)C(=O)O)C(OC(=O)CC(CC(=O)O)C(=O)O)C(C)CCCC (centres unmarked) [FB1C20:0]
0,0
CCCCCCCCCCCCCCCCCC(=O)NC(C)C(O)CC(O)CCCCC(O)CC(C)CC(OC(=O)CC(CC(=O)O)C(=O)O)C(OC(=O)CC(CC(=O)O)C(=O)O)C(C)CCCC (centres unmarked) [FB1C18:0]
4,0

Req: Name the reported N-acyl-derivative in tissue sample, analysis a value associated with the molecule CCCCCCCCCCCCCCCCCCCCCCCC(=O)N[C@@H](C)[C@@H](O)C[C@H](O)CCCC[C@@H](O)C[C@H](C)C[C@H](O)[C@H](O)[C@H](C)CCCC [HFB1C24:0]
Resp: 0,0

Data provenance is paper PMC4298654.
